Values compiled from paper PMC5389548.

# study target: thrombin (human, UniProt P00734;P00734 328-363;364-622)
# test description: microarray sandwich fluorescence
quantity name: Kd (nM)
# number only, unit nM dropped from output

Below: 2 binders and their reported Kd.
>  <binder>
GGTTGGTGTGGTTGG (structured_DNA, eight 2'F-ANA, positions lost in text) [sequence 6]

>  <quantity name>
Kd

>  <experimental result>
29

$$$$
>  <binder>
GGTTGGTGTGGTTGG (structured_DNA, 2'F-ANA, positions lost in text) [sequence 3]

>  <quantity name>
Kd

>  <experimental result>
39

$$$$

--- query ---
Please give measured Kd of the following entry: GGTTGGTGTGGTTGG (structured_DNA, 2'F-ANA at T3, G8, T12; full pattern lost in text) [sequence 2]
28
